test system: human whole blood (granulocytes, monocytes + lymphocytes, erythrocytes); test: In vitro cell uptake in human whole blood; type: cell-based; details: 37° C. for 1 hour, radiolabelled compound
MEASURED_ATTRIBUTE: % uptake in Gran. (granulocytes), WHOLE BLOOD (%)

COMPOUND	READING_UNIT	RECORDED_VALUE
CCC1(CC)C(=O)N(C(=O)NCCC(=O)NCCN(CCNC(C)(C)C(C)=NO)CCNC(C)(C)C(C)=NO)C1Oc1ccc(C(=O)N2CCN(C)CC2)cc1 (racemic)	%	1.7
CCC1(CC)C(=O)N(C(=O)NCc2ccc(I)cc2)C1Oc1ccc(C(=O)N2CCN(C)CC2)cc1 (racemic)	%	5.0
CCC1(CC)C(=O)N(C(=O)NCc2ccccc2)C1Oc1ccc(C(=O)NCC(C)(CNC(C)(C)C(C)=NO)CNC(C)(C)C(C)=NO)cc1 (racemic)	%	6.9
CCC[C@@H](NC(=O)N1C(=O)C(CC)(CC)[C@@H]1Oc1ccc(C(=O)N2CCN(C)CC2)cc1)c1ccc(I)cc1	%	24.3
CCC1(CC)C(=O)N(C(=O)NCCCCCC(=O)NCC(C)(CNC(C)(C)C(C)=NO)CNC(C)(C)C(C)=NO)C1Oc1ccc(C(=O)N2CCN(C)CC2)cc1 (racemic)	%	10.6
CCC1(CC)C(=O)N(C(=O)NCCc2ccc(O)c(I)c2)C1S(=O)(=O)CCOC (stereo not shown)	%	0.2
CCC1(CC)C(=O)N(C(=O)NCc2ccccc2)C1Oc1ccc(C(=O)NCCN(CCNC(C)(C)C(C)=NO)CCNC(C)(C)C(C)=NO)cc1 (racemic)	%	9.1
